Tested on: MDA-MB-231
Assay: kynurenine production, fold change vs DMSO IFNg/TNF control; higher = more kynurenine produced (less inhibition)
Settings: pre-treatment time: 18 h then 24 h IFNg/TNF
Consider the following molecules and their measured kynurenine production readings.
Observable: kynurenine production

Molecule | Assay System | Test Result
O=C(O)c1ccc(=O)[nH]c1 [6-hydroxynicotinic acid] (compound dose: 10 uM) | MDA-MB-231 | 0.973
COC(=O)[C@]1(C)CC[C@]2(C)CC[C@]3(C)C4=CC=C5C(=CC(=O)C(O)=C5C)[C@]4(C)CC[C@@]3(C)[C@@H]2C1 [Pristimerin] (compound dose: 10 uM) | MDA-MB-231 | 0.0819
CC(C)(C)[C@]1(O)CC2OC(=O)CC23C(=O)OC2OC(=O)[C@H](O)C231 (stereo partly drawn) [Bilobalide] (compound dose: 10 uM) | MDA-MB-231 | 0.774

// data source = the supplement of paper PMC13094657
